- measured-on: HLA-A*11:01
- procedure-text: IEDB peptide-MHC binding, purified MHC/competitive/radioactivity; filed as Kd, often an IC50 or EC50 that approximates it; bounds were set here for any values at or beyond the usual limits of such assays
- measurement-parameters: source organism: Vaccinia virus WR
Rule: Kd below 700 nM gives fulfilled, anything at or above gives not fulfilled.

seq-text: PFKVINLPK
classification: fulfilled
//
seq-text: DFDNLIGVR
classification: not fulfilled
//
seq-text: MTLVPVLEK
classification: fulfilled
//
seq-text: SFSNTIQSY
classification: not fulfilled
//
seq-text: DAKNDDWKK
classification: not fulfilled
//
seq-text: WLSMTDEMR
classification: not fulfilled
//
seq-text: HIVCSKTVK
classification: not fulfilled
//
seq-text: TILDDNLYK
classification: fulfilled
//
seq-text: LLHCVTESY
classification: not fulfilled
//
seq-text: IQTSVNTVVR
classification: not fulfilled
//
seq-text: LIKFISDNKK
classification: not fulfilled
//
seq-text: SQIFNIISY
classification: fulfilled
//
seq-text: IINDKGKQY
classification: not fulfilled
//
seq-text: SMDVLAEKKY
classification: not fulfilled
//
seq-text: VLNRHAITMY
classification: not fulfilled
//
seq-text: EALEYLSELK
classification: fulfilled
//
seq-text: KFTILEYLY
classification: not fulfilled
//
seq-text: KAFNHASVK
classification: fulfilled
//
seq-text: ELYDTSPTK
classification: fulfilled
//
seq-text: DSFLRKIGDK
classification: not fulfilled
//
seq-text: HIASKINNNR
classification: not fulfilled

---

Quick list: Kd per entry.
- measured-on: HLA-A*02:19
- procedure-text: IEDB peptide-MHC binding, purified MHC/direct/fluorescence; filed as Kd, often an IC50 or EC50 that approximates it; bounds were set here for any values at or beyond the usual limits of such assays
- measurement-parameters: source organism: Salmonella enterica subsp. enterica serovar Typhimurium

seq-text: WPVMQWLTA
Kd: ≥ 20000 nM
--
seq-text: GVNACQVGV
Kd: 23 nM

---

- measured-on: HLA-A*02:03
- procedure-text: IEDB peptide-MHC binding, purified MHC/direct/fluorescence; filed as Kd, often an IC50 or EC50 that approximates it; bounds were set here for any values at or beyond the usual limits of such assays
- measurement-parameters: source organism: Yersinia pestis CA88-4125

seq-text: FLPPQIPVI
Kd: ≤ 1 nM

---

- measured-on: HLA-A*02:19
- procedure-text: IEDB peptide-MHC binding, purified MHC/competitive/fluorescence; filed as Kd, often an IC50 or EC50 that approximates it; bounds were set here for any values at or beyond the usual limits of such assays
- measurement-parameters: source organism: Cryptosporidium parvum Iowa II
pKd: −log10 of the molar value.

seq-text: RLKHIFLIF
measured-on: HLA-A*02:19
pKd: ≤ 4.70

---

- measured-on: HLA-A*31:01
- procedure-text: IEDB peptide-MHC binding, purified MHC/direct/fluorescence; filed as Kd, often an IC50 or EC50 that approximates it; bounds were set here for any values at or beyond the usual limits of such assays
- measurement-parameters: source organism: Pseudomonas aeruginosa
pKd: −log10 of the molar value.
value-type: pKd

seq-text: LQKVPHTRY
measured-on: HLA-A*31:01
recorded-result: 4.76

---

- measured-on: HLA-A*69:01
- procedure-text: IEDB peptide-MHC binding, purified MHC/direct/fluorescence; filed as Kd, often an IC50 or EC50 that approximates it; bounds were set here for any values at or beyond the usual limits of such assays
- measurement-parameters: source organism: Homo sapiens
Quick list: Kd per entry.
value-type: Kd

seq-text: AHSTIMPRL
recorded-result: 832 nM

seq-text: ETFNTPAMY
recorded-result: 59.6 nM
